B1: scFv; the commonest letter at each place (parent)
chain 1: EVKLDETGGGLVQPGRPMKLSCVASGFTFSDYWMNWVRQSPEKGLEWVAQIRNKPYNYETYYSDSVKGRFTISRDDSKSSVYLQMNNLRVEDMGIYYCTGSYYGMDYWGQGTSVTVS
chain 2: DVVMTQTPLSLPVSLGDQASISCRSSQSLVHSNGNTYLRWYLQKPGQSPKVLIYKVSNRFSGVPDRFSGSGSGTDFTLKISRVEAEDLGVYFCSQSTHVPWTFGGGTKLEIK

Variants of: B1
Experiment: Kd (Tite-Seq)
Details: with fluorescein; format: scFv 4-4-20, heavy + light
pKd: −log10 of the molar value.
pKd: recorded values

Can you look up the measured pKd of chain 1 Y32A W36N for me?
≤ 5.00
